These entries and their values trace back to ChEMBL document CHEMBL1157539.

# System: HepG2
# protocol-summary: GSK_TCMDC: Percent inhibition of human HepG2 cell line. Test compounds present at 10uM.
# Type: functional
test-readout: Inhibition (%)
Expressed in %, but write only the number.

O=C(O)C(F)(F)F.O=S(=O)(NCCN1CCCC1)c1ccc(-c2ccc(CNCc3ccc(F)cc3)cc2)cc1F :: 40
Cc1ccc(-c2nn3c(O)c4c(nc3c2C)CCCC4)cc1 :: 16
Cc1cccc2nc(-c3ccc(-c4cccc(CN5CCN(CC6CCCN(C)C6)CC5)c4)s3)[nH]c12.O=C(O)C(F)(F)F (stereo not given) :: 47
CCOc1cc(C(=O)NC2CC(C)(C)N(C)C(C)(C)C2)ccc1-c1nc2cc(Cl)c(Cl)cc2[nH]1 :: 64
CCCc1ccc(NC(=O)c2cccc(CN3CCCN(Cc4cccc(C#N)c4)CC3)c2)cc1.O=C(O)C(F)(F)F :: 20

Entry CCCCN(CCCC)CCCCCCNc1c2ccccc2nc2ccccc12.Cl needs its Inhibition filled in; supply it.
49

###

# Tested on: Plasmodium falciparum
# protocol-summary: GSK_TCMDC: Inhibition of Plasmodium falciparum Dd2 in whole red blood cells, using parasite LDH activity as an index of growth. Test compounds present at 2uM
# Type: functional
Inhibition overview
Expressed in %, but write only the number.

These recorded examples may help you get a feel for the data.
Cl.Clc1ccc2c(NCCc3ccccc3)ccnc2c1 :: 99
Cc1cc(CNCCCCCCNCc2ccc(Cl)cc2)ccc1O :: 0
CC(=O)N(Cc1ccc(CC(C)NCCc2cccc(Cl)c2)cc1)Cc1ccc(CC(C)NCCc2cccc(Cl)c2)cc1 (centres undefined) :: 94

Report Inhibition from Plasmodium falciparum testing of C[C@H](Nc1nc(C(Oc2ccccc2)c2ccccc2)nc2[nH]ncc12)c1ccccc1 (some centres undefined)
56

###

# System: Plasmodium falciparum
# protocol-summary: GSK_TCMDC: Inhibition of Plasmodium falciparum Dd2 in whole red blood cells, using parasite LDH activity as an index of growth. Test compounds present at 2uM
# Assay type: functional
Think of 80% as a floor: if Inhibition stands on it or above, it is 1 (yes); beneath it, 0 (no).

Worked set:
COc1cc(C(C)C)ccc1C1CCN(CCCCNC(=O)c2ccc(NC(=O)c3ccc(Cl)cc3)cc2)CC1.O=C(O)/C=C/C(=O)O :: 1 (yes)
COc1ccc(Oc2ccc(-c3c(O)cc(C)nc3C)cc2)cc1 :: 1 (yes)

Tell me whether Inhibition is at least 80% here: Cc1cccc2nc(-c3cccc(-c4cccc(CNCCCN5CCCC5=O)c4)c3)[nH]c12.O=C(O)C(F)(F)F
0 (no)

Tell me whether Inhibition is at least 80% here: O=C(Nc1ccc(-c2ccc(-c3nc4cc(C(F)(F)F)ccc4[nH]3)s2)cc1)c1ccoc1
0 (no)

Tell me whether Inhibition is at least 80% here: CCOC(=O)c1ccc(NC(=O)Nc2cccc(-c3cccc(-c4nc5cccc(C)c5[nH]4)c3)c2)cc1
1 (yes)

Tell me whether Inhibition is at least 80% here: Cc1noc(C)c1-c1cccc(CNCc2ccc(-c3cccc(-c4nc5cc(C(F)(F)F)ccc5[nH]4)c3)cc2)c1.O=C(O)C(F)(F)F
1 (yes)

###

# Test system: Plasmodium falciparum
# protocol-summary: GSK_TCMDC: Inhibition of Plasmodium falciparum 3D7 in whole red blood cells, using parasite LDH activity as an index of growth. Test compounds present at 2uM
# Assay type: functional
Inhibition overview
Expressed in %, but write only the number.

Cc1cccc(/C=C/C(=O)NC2CCC(N3CCC(c4ccccc4C)CC3)CC2)c1 (stereo not given) :: 92
COc1ccc(CNCc2ccc(F)cc2)cc1-c1ccc(S(=O)(=O)NCCN2CCCC2)s1.O=C(O)C(F)(F)F :: 100
CC(=O)c1ccc(NC(=O)Nc2ccc3nccc(N4CCN(C)CC4)c3c2)cc1 :: 100

Entry O=C(NC1CCN(Cc2ccccc2)CC1)c1ccc2c(=O)n(Cc3ccc(Cl)cc3)c(=S)[nH]c2c1 needs its Inhibition filled in; supply it.
100

###

Inhibition overview
# System: HepG2
# protocol-summary: GSK_TCMDC: Percent inhibition of human HepG2 cell line. Test compounds present at 10uM.
# Assay type: functional
Report field: quantity (unit follows the number).

These recorded examples may help you get a feel for the data.
Cn1nccc1C(=O)NCCNCc1ccc(-c2ccc(-c3nc4cc(C(F)(F)F)ccc4[nH]3)s2)cc1.O=C(O)C(F)(F)F :: 48%
O=C(NCCc1cccc(F)c1)c1cc(Br)cc(N2CCN(c3ccncc3)CC2)c1.O=C(O)C(F)(F)F :: 34%
CCCCCN1CCC(NS(=O)(=O)c2ccc(C(=O)Nc3cccc(C(F)(F)F)c3)cc2)C1.O=C(O)C(F)(F)F (stereo unspecified) :: 14%
CC(=O)c1cccc(S(=O)(=O)NCCCNc2nc3cc(C)cc(C)c3cc2C#N)c1 :: 11%
COc1ccc(Nc2ncc3c(-c4cccc(NC(=O)Cc5ccncc5)c4)c[nH]c3n2)cc1OC :: 23%
NC(=O)c1ccc(NCC(=O)Nc2cccc(-c3cccc(-c4nc5ccccc5[nH]4)c3)c2)cc1 :: 9%
Cc1cccc2nc(-c3ccc(-c4cccc(CN5CCC(CCN6CCCCC6)CC5)c4)s3)[nH]c12.O=C(O)C(F)(F)F :: 99%
COc1ccc2[nH]c(C)cc(=NN=Cc3ccc(F)cc3)c2c1 :: 5%

We now examine a further compound.
Entry O=C(N[C@H]1CCN(Cc2ccc(OCCCN3CCCCC3)cc2)C1)c1cc(Cl)cc(Cl)c1 needs its Inhibition filled in; supply it.
13%

###

# Test system: Plasmodium falciparum
# protocol-summary: GSK_TCMDC: Inhibition of Plasmodium falciparum 3D7 in whole red blood cells, using parasite LDH activity as an index of growth. Test compounds present at 2uM
# Type: functional
Inhibition overview
Expressed in %, but write only the number.

COc1ccccc1N1CCN(CCCCNC(=O)c2ccc(NC(=O)c3cc(Cl)cc(Cl)c3)cc2)CC1 :: 100

We now examine a further compound.
Entry O=C(Nc1ccc(-c2cccc(-c3nc4ccccc4[nH]3)c2)cc1)Nc1ccc(Cl)c(Cl)c1 needs its Inhibition filled in; supply it.
100

###

# Tested on: HepG2
# protocol-summary: GSK_TCMDC: Percent inhibition of human HepG2 cell line. Test compounds present at 10uM.
# Format: functional
test-readout: Inhibition
Report field: quantity (unit follows the number).

These recorded examples may help you get a feel for the data.
Br.CCCCCCn1c2c(c(=N)c3c1CCC3)CCC2 :: 32%
O=C(Nc1ccc([N+](=O)[O-])cc1Cl)c1cc2ccccc2cc1O :: 6%
Cc1cccc2nc(-c3ccc(-c4cccc(CN5CCN(c6ccncc6)CC5)c4)s3)[nH]c12.O=C(O)C(F)(F)F :: 48%
Cn1nccc1C(=O)NCCNCc1ccc(-c2cccc(-c3nc4cc(F)ccc4[nH]3)c2)cc1.O=C(O)C(F)(F)F :: 37%
COc1ccc(-c2nc(NCc3ccccc3)c3cc(OC)c(OC)cc3n2)cc1 :: 15%

Entry COc1ccc2nccc(NC(=O)N3CCC(NCc4cc5c(F)ccc(F)c5[nH]4)CC3)c2n1.O=C(O)C(=O)O needs its Inhibition filled in; supply it.
6%

Entry O=[N+]([O-])c1ccc(/C=N/Nc2cc(-c3ccccc3)nc3ccccc23)o1 needs its Inhibition filled in; supply it.
48%

Entry CCc1ccc(C(=O)NC(=O)c2ccccc2O)cc1 needs its Inhibition filled in; supply it.
0%

Entry Cc1ccc(Cc2c(N)nc3nc(N)nc(N)c3c2C)cc1.Cl needs its Inhibition filled in; supply it.
59%

Entry CN1CCN(c2cc(NC(=O)Nc3ccc(-c4ccncc4)c(Cl)c3)ccc2Br)CC1 needs its Inhibition filled in; supply it.
23%

Entry COc1ccc(CC2(c3ccc(F)cc3)N=C(N)N(CCCc3ccccc3)C2=O)cc1.O=C(O)C(F)(F)F (stereo not drawn) needs its Inhibition filled in; supply it.
38%

Entry CCN(CCNC(=O)C1CCN(c2cc(-c3cccc(C)c3)ncn2)CC1)Cc1ccccc1 needs its Inhibition filled in; supply it.
24%

Entry CCN(CC)CCN(Cc1ccc(-c2ccc(C(F)(F)F)cc2)cc1)C(=O)Cn1cc(Cc2cnn(C)c2)c(=O)nc1/C=C/c1ccc(F)cc1.O=C(O)C(O)C(O)C(=O)O needs its Inhibition filled in; supply it.
6%

Entry O=C(Nc1cccc(-c2nn3ncccc3c2-c2ccnc(Nc3ccccc3)n2)c1)c1c(F)cccc1F needs its Inhibition filled in; supply it.
51%

Entry Cc1cccc2nc(-c3ccc(-c4ccc(CN5CCOCC5)cc4)cc3)[nH]c12.O=C(O)C(F)(F)F needs its Inhibition filled in; supply it.
29%

Entry O=C(/C=C/c1ccc(Cl)cc1)NCCCCCN1CCCN(C(=O)Nc2ccc(F)c(Cl)c2)CC1 needs its Inhibition filled in; supply it.
29%

Entry Cc1cc(N(C)CCCN(C)C)nc(Nc2ccc(Cl)cc2)n1 needs its Inhibition filled in; supply it.
7%

Entry COc1cccc2sc(N3CCN(C(=O)c4ccc([N+](=O)[O-])o4)CC3)nc12 needs its Inhibition filled in; supply it.
0%
